Recorded values, source the supplement of paper PMC7125110.

B1: glmS ribozyme (parent)
chain: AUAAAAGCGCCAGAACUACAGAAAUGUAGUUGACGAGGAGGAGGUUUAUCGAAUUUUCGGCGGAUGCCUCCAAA

Variants of: B1
Assay: self-cleavage kobs at 160 uM GlcN6P; higher = faster cleavage; RNA array
Details: with glucosamine-6-phosphate
This sample holds only a part of the variants without activity.
recorded-endpoint: self-cleavage kobs at 160 uM GlcN6P

(Q) I am curious: what self-cleavage kobs at 160 uM GlcN6P value has been reported for A6G G44U G62U G63A U69A ?
(A) < 1e-05 s⁻¹

(Q) Repeat with A33G C71A
(A) < 1e-05 s⁻¹

(Q) Repeat with G60U A64U
(A) < 1e-05 s⁻¹

(Q) Repeat with U45C C71U
(A) 0.000236 s⁻¹

(Q) Repeat with A33C G43A U47G
(A) < 1e-05 s⁻¹

(Q) Repeat with G51U A53U
(A) < 1e-05 s⁻¹

(Q) Repeat with G60C C71G
(A) < 1e-05 s⁻¹

(Q) Repeat with "U69A"
(A) 0.000534 s⁻¹

(Q) Repeat with G9A U55G
(A) < 1e-05 s⁻¹

(Q) Repeat with G7C G29U A33G
(A) < 1e-05 s⁻¹

(Q) Repeat with G13C G66U
(A) < 1e-05 s⁻¹

(Q) Repeat with U31C G63A
(A) < 1e-05 s⁻¹

(Q) Repeat with C16U G40U C68G
(A) < 1e-05 s⁻¹

(Q) Repeat with A6U A52G
(A) < 1e-05 s⁻¹

(Q) Repeat with C10U G66U
(A) < 1e-05 s⁻¹

(Q) Repeat with U46A G66C
(A) 0.000161 s⁻¹

(Q) Repeat with C10U G41U
(A) < 1e-05 s⁻¹

(Q) Repeat with G7A C50A G51A
(A) < 1e-05 s⁻¹

(Q) Repeat with A42U A52C C67A
(A) < 1e-05 s⁻¹

(Q) Repeat with C8U A12G C50U C68G
(A) 0.000221 s⁻¹

(Q) Repeat with G35A G63A
(A) < 1e-05 s⁻¹

(Q) Repeat with G40U G60A U65G
(A) < 1e-05 s⁻¹

(Q) Repeat with A33U G41U
(A) < 1e-05 s⁻¹

(Q) Repeat with A53G U54G
(A) 0.00165 s⁻¹

(Q) Repeat with A6C C10G
(A) < 1e-05 s⁻¹

(Q) Repeat with U31A C50A
(A) < 1e-05 s⁻¹

(Q) Repeat with G37A G66C
(A) 4.54e-05 s⁻¹

(Q) Repeat with A6C C50G C61G
(A) 0.000251 s⁻¹

(Q) Repeat with U30C A42G
(A) 7.93e-05 s⁻¹

(Q) Repeat with U56A C70A
(A) 5.73e-05 s⁻¹

(Q) Repeat with A33U G51U C58U
(A) < 1e-05 s⁻¹

(Q) Repeat with U30C U47C
(A) < 1e-05 s⁻¹

(Q) Repeat with G9U A33G
(A) < 1e-05 s⁻¹

(Q) Repeat with G7U G9A A14U C50G
(A) 0.000138 s⁻¹

(Q) Repeat with A12U A15G A36U
(A) < 1e-05 s⁻¹

(Q) Repeat with G38A U45C
(A) < 1e-05 s⁻¹

(Q) Repeat with U30A G40C U49G
(A) < 1e-05 s⁻¹

(Q) Repeat with G32A U49C C61A
(A) < 1e-05 s⁻¹

(Q) Repeat with G32A A53U U65C
(A) < 1e-05 s⁻¹

(Q) Repeat with G29A U30G
(A) 0.000288 s⁻¹

(Q) Repeat with C10G G38U G41U U49C C50U C70A
(A) < 1e-05 s⁻¹

(Q) Repeat with C8A A15U
(A) < 1e-05 s⁻¹

(Q) Repeat with G13U U56A
(A) 4.35e-05 s⁻¹

(Q) Repeat with A6G G32C
(A) < 1e-05 s⁻¹

(Q) Repeat with A42C G51A C61U
(A) < 1e-05 s⁻¹

(Q) Repeat with G32A G63U
(A) < 1e-05 s⁻¹
